Values from paper PMC12586182

- Tested on: PC-3
- protocol.text: Cell viability assay (ATPlite)
- Assay type: cell-based
- experimental.conditions: Homo sapiens; PC-3 cell line, 72 hours incubation
recorded.endpoint: pIC50
Note: pIC50 values are expressed as the negative base-10 logarithm of concentration in M.

[Q] Name the recorded pIC50 for O=C(c1ccc(Oc2ccccc2)cc1Cl)c1c[nH]c2ncnc(N[C@@H]3CC[C@@H](CO)OC3)c12 [nemtabrutinib] .
[A] 4.57

###

In this section we review reported Percentage inhibition of kinase enzyme activity values for a set of molecules.
- assay.target: DCAMKL2 (Homo sapiens, UniProt Q8N568)
- Construct: purchased Carna Biosciences
- Sequence (Q8N568 whole entry): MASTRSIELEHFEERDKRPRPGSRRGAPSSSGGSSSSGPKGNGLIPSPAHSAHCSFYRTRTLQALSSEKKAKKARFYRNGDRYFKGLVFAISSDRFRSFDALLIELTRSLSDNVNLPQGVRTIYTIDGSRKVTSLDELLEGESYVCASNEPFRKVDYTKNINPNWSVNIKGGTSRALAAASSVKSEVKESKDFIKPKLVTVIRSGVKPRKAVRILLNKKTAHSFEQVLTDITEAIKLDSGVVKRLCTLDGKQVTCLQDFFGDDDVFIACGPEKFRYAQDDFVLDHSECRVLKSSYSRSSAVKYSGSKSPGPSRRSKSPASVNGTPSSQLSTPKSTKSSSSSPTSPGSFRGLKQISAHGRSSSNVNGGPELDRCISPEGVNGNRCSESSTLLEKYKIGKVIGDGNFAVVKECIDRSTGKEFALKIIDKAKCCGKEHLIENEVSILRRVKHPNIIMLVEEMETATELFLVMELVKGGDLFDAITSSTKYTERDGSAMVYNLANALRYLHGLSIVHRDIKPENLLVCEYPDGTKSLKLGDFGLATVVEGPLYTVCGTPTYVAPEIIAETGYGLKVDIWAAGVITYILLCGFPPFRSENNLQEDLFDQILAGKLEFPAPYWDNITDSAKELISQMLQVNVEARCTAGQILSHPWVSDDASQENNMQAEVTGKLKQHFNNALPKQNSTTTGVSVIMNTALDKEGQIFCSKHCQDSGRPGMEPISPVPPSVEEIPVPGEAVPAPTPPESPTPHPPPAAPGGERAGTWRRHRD
- protocol.text: Kinase panel profiling at 1 µmol/L (mobility shift assay, Carna)
- Type: biochemical
- experimental.conditions: 1 µmol/L of BTK inhibitor
The reply should be a number in %, with the unit left off.

Previously resolved entries follow.
molecular.string: O=C(c1ccc(Oc2ccccc2)cc1Cl)c1c[nH]c2ncnc(N[C@@H]3CC[C@@H](CO)OC3)c12
assay.target: DCAMKL2 (Homo sapiens, UniProt Q8N568)
display.unit: %
measurement: -1.82

molecular.string: C=CC(=O)N1CCC[C@@H](n2nc(-c3ccc(Oc4ccccc4)cc3)c3c(N)ncnc32)C1
assay.target: DCAMKL2 (Homo sapiens, UniProt Q8N568)
display.unit: %
measurement: -9.45

molecular.string: CC#CC(=O)N1CCC[C@H]1c1nc(-c2ccc(C(=O)Nc3ccccn3)cc2)c2c(N)nccn12
assay.target: DCAMKL2 (Homo sapiens, UniProt Q8N568)
display.unit: %
measurement: 4.63

[Q] Form field: reported Percentage inhibition of kinase enzyme activity of COc1ccc(F)cc1C(=O)NCc1ccc(-c2nn([C@@H](C)C(F)(F)F)c(N)c2C(N)=O)cc1
[A] 0.08
